# System: SF-268
# Test: NCI tumour cell line growth inhibition, 48 h
Activity calls are given as the source filed them. Cut-off read from the data, not from the text of the source: active = GI50 up to about 1.1 µM and inactive = higher.
Assignment: determine reported GI50 for the given molecules.

Looking up CC(C)CC(NC(=O)OC(C)(C)C)C(=O)Nc1ccc(Nc2nc(F)nc(-c3c4ccccc4cn3C)n2)cc1 (centres undefined) , I found its GI50 recorded as > 100 µM (inactive)

Looking up `CN(C)N1C(=O)C(=O)N(c2cccc3ccccc23)C1=O` , I found its GI50 recorded as > 10 µM (inactive)

Looking up c1ccc(C2N3CCCCC3[C@@H]3c4[nH]c5ccccc5c4CCN23)cc1 (some centres undefined) , I found its GI50 recorded as > 100 µM (inactive)

Looking up `CCCCCCCCCc1c(O)c(O)c(CCCCCCCCC)c(CCCCCCCCC)c1CCCCCCCCC` , I found its GI50 recorded as > 100 µM (inactive)

Looking up `CCOC(=O)c1sc2c(c1O)c(=O)n(-c1ccccc1)c(=S)n2-c1ccccc1` , I found its GI50 recorded as > 100 µM (inactive)

Looking up CCOC(=O)CCC(NC(=O)Cc1ccc(Nc2nc3cc(F)c(F)cc3nc2C(=O)OCC)cc1)C(=O)OCC (centres undefined) , I found its GI50 recorded as 31.3 µM (inactive)

Looking up `O=Cc1cc(O)ccc1Br` , I found its GI50 recorded as 9.93 µM (inactive)

Looking up CN1C2CCC1C(C(O)c1ccccc1[N+](=O)[O-])C(=O)C2 (centres undefined) , I found its GI50 recorded as 57.1 µM (inactive)

Looking up COC(=O)C1CCC(=O)C(Sc2ccccc2)C1 (centres undefined) , I found its GI50 recorded as 59.8 µM (inactive)

Looking up `OCCNCCN1CCN(CCCN2c3ccccc3Sc3ccc(C(F)(F)F)cc32)CC1` , I found its GI50 recorded as 24.5 µM (inactive)

Looking up COC(=O)C1C(O)CCC2CN3CCc4c([nH]c5ccccc45)C3CC21 (centres undefined) , I found its GI50 recorded as > 100 µM (inactive)

Looking up `Cc1n2nc(N)sc2n[n+]1Cc1ccccc1` , I found its GI50 recorded as 48.8 µM (inactive)

Looking up `CO/C(=N\N=Cc1ccccc1)c1ccncc1` , I found its GI50 recorded as > 100 µM (inactive)

Looking up Cc1ccc(OCC2OC(n3cnc4c(Br)nc(Br)nc43)CC2Oc2ccc(C)cc2)cc1 (centres undefined) , I found its GI50 recorded as 12.9 µM (inactive)

Data provenance is ChEMBL document CHEMBL1201862.
